# Tested on: S180-bearing mice
# Test summary: Bio-distribution in tumor-bearing mice
# Type: in vivo
# Conditions used: S180-bearing mice, tail vein, 60 min
Measured metric: Small intestine uptake (% ID/g)
Numbers only; they are read as % ID/g.

Enquiry: What value of Small intestine uptake on S180-bearing mice does O=C(CC[N+]#[C][99Tc-5]([C]#[N+]CCC(=O)NC1C(O)OC(CO)C(O)C1O)([C]#[N+]CCC(=O)NC1C(O)OC(CO)C(O)C1O)([C]#[N+]CCC(=O)NC1C(O)OC(CO)C(O)C1O)([C]#[N+]CCC(=O)NC1C(O)OC(CO)C(O)C1O)[C]#[N+]CCC(=O)NC1C(O)OC(CO)C(O)C1O)NC1C(O)OC(CO)C(O)C1O (stereo not shown) [[^99mTc-(CN2DG)6]^+] have?
Return: 0.19
